Readings of inhibition for the listed molecules
Assay: kanamycin survival loss of SKKanGAS strain – BacTiter-Glo luminescence, streptokinase expression inhibitor project, primary screen (AID 1662);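 note: strain carries kanamycin resistance gene driven by streptokinase promoter and grows in 40 µg/ml kanamycin; loss of luminescence reflects streptokinase promoter inhibition or plain growth inhibition; 0% = median of DMSO wells and 100% = positive control at its reference dose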
Conditions: S. pyogenes SKKanGAS, kanamycin growth, 6 h, at 7.5 µM, active compounds read high
Among all 300,000 compounds or so, about 4,000 (1.3%) were called active. Many of the other results were omitted from the sample, so actives are more common in it than they were.
MEASURED_QUANTITY: inhibition (%)

MOLECULE	MEAS_VALUE
COc1ccc(NC(=O)Nc2cccc3cccnc23)cc1	-7.39
COc1ccccc1N1CCN(C(=O)CCS(=O)(=O)c2ccc3c(c2)NC(=O)C(C)S3)CC1 (stereo unspecified)	-2.2
CC1(C)C2CCC1(CS(=O)(=O)NCCc1c[nH]c3ccccc13)C(=O)C2 (stereo unspecified)	-7.05
CSc1nc2ccccc2c(=O)n1Cc1ccc(F)cc1	18.7
O=C(Nc1ccc(S(=O)(=O)Nc2ncccn2)cc1)C12CC3CC(CC(C3)C1)C2	7.21
COc1ccc(-c2cn[nH]c2-c2ccc(OC)cc2)cc1	75.3
CCN1CCN(C(=O)N(Cc2ccc(Cl)cc2)S(=O)(=O)c2ccc(C)cc2)CC1	-0.707
N#Cc1c(-c2ccccc2)nc(SCc2ccc([N+](=O)[O-])cc2)[nH]c1=O	15.1
O=C(O)c1cccc(N=NN2CCCCCC2)c1	5.53
CCCCn1c(SCC(=O)NCC2CCCO2)nc2ccc(N3CCOCC3)cc2c1=O (stereo unspecified)	2.53
NS(=O)(=O)c1ccc(CCNC(=O)CN2C(=O)c3ccccc3S2(=O)=O)cc1	-2.59
CC1(C)CC2CC(C)(CN2c2ncnc3ccc(Br)cc23)C1 (stereo unspecified)	18.3
CC(C)(C)N1C(=O)[C@H]2[C@@H](c3ccc(Br)cc3)N3C(=O)N(c4cccc(Cl)c4)C(=O)[C@@]3(C)[C@H]2C1=O	-0.18
COc1ccc(Oc2cn[nH]c2-c2ccc(OC)cc2O)cc1	13.6
O=C(COC(=O)c1ccccc1)Nc1ccccc1Sc1ccccc1	58.2
O=C(NCc1cccnc1)Nc1cccc(NC(=O)NCc2cccnc2)c1F	-0.181
